FYI, the data here is from patent US6127119.

Molecular target: Fibrinogen (Homo sapiens, UniProt P02671-2;P02675;P02679-2 P02671-2:20-644,P02675:31-491,P02679-2:27-437)
Sequence (P02671 other isoform, or with tags, fused parts or gaps, chain 1 of 3): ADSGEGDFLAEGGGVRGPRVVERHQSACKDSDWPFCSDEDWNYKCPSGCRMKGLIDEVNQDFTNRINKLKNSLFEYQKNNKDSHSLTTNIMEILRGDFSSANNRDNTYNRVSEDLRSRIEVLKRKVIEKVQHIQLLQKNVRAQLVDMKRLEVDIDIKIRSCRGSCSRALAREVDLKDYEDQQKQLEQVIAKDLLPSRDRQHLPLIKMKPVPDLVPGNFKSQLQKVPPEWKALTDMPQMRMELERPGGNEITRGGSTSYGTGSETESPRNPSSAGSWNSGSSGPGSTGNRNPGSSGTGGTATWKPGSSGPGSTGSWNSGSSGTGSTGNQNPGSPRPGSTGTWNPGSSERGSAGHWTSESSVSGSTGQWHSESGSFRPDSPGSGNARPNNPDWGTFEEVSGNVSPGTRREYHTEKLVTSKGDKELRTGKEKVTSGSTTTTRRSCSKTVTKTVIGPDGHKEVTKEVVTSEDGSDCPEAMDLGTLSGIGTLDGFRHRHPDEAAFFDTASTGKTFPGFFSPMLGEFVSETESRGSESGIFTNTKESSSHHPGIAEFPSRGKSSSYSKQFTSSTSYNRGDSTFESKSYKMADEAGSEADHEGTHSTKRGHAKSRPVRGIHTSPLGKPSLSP
Sequence (P02675 31-491, chain 2 of 3): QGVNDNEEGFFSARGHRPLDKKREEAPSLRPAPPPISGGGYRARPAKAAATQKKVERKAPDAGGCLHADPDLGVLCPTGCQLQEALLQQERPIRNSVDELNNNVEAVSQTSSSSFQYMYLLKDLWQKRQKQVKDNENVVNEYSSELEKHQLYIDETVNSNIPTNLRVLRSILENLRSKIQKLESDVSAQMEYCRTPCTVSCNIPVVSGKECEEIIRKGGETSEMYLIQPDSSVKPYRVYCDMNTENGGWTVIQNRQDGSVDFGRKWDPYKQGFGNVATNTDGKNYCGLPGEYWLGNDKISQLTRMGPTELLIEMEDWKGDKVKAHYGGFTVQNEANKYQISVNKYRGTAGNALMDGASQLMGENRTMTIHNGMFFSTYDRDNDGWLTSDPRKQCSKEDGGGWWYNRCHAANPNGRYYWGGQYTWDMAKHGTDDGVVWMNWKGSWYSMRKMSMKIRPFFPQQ
Sequence (P02679 other isoform, or with tags, fused parts or gaps, chain 3 of 3): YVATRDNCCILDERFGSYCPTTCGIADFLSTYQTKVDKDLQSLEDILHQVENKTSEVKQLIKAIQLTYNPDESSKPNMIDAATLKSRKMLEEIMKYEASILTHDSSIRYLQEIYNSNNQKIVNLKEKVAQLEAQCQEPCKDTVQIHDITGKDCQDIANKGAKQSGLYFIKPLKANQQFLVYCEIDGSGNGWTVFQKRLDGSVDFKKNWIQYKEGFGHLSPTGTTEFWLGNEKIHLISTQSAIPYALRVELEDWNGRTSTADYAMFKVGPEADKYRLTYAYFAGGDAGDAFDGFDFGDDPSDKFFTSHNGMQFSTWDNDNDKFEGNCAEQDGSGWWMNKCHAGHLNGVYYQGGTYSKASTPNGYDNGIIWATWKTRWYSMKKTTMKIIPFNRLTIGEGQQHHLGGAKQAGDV
Experiment: filter; low class; printed l mM, probably uM
Details: chain copies: 2
measurement_kind: Kd

FCN6 (ssRNA, 2'-F pyrimidines) RNA: GGGAGAUAAGAAUAAACGCUCAACAACGAUUAUCUUUUCGGCCGUGAAACCCAAACUGACGCCUUCGACAGGAGGCUCACAACAGGC    > 1000 nM
FCN54 (ssRNA, 2'-F pyrimidines) RNA: GGGAGAUAAGAAUAAACGCUCAACUGGGCUCAUCCGGCGAAUGAUGCAAGGAAGAUUUCACAUUUCGACAGGAGGCUCACAACAGGC    > 1000 nM
FCN49 (ssRNA, 2'-F pyrimidines) RNA: GGGAGAUAAGAAUAAACGCUCAAGAAUGGAGCCAAGAAAGACAGCGAUGUCUCGGACGAUGAGUUCGACAGGAGGCUCACAACAGGC    > 1000 nM

Could you now consider this next binder?
Which Kd value belongs to FCN9 (ssRNA, 2'-F pyrimidines) RNA: GGGAGAUAAGAAUAAACGCUCAACGUUGAAAUCGCUCCUCAGUGUGAGUUGAAUCAGCUGACCUUCGACAGGAGGCUCACAACAGGC ? > 1000 nM
